Where these numbers come from: ChEMBL document CHEMBL1123028

LD50 values for the compounds below.
- Method summary: Lethal dose after the intraperitoneal injection in a group of 10 mice
- Format: toxicity, organism-based
- Particulars: mouse, in vivo, ip
Reply with just the number (in mg/kg).

Reference set (4 entries):
{"columns": ["Smiles data", "LD50, mg/kg"],
 "data": [
  ["COc1cc2c(c(OC)c1OC)-c1ccc(SC)c(=O)cc1[C@@H](NC(=O)c1ccccc1)CC2", 40],
  ["COc1cc2c(c(OC)c1OC)-c1ccc(SC)c(=O)cc1[C@@H](N(C)C(=O)C(F)(F)F)CC2", 18.6],
  ["COc1cc2c(c(OC)c1OC)-c1ccc(SC)c(=O)cc1[C@@H](NC(=O)C(F)(F)F)CC2", 0.9],
  ["COc1cc2c(c(OC)c1OC)-c1ccc(SC)c(=O)cc1[C@@H](NC=O)CC2", 58.2]
]}

Q: Data request, read-out LD50, for `C=COC(=O)N[C@H]1CCc2cc(OC)c(OC)c(OC)c2-c2ccc(SC)c(=O)cc21`
Result: 87.5
